Every entry's value here was drawn from patent US10351575B2.

- tested.on: Fms (Homo sapiens (Human), UniProt P07333)
- Sequence (P07333 20-972): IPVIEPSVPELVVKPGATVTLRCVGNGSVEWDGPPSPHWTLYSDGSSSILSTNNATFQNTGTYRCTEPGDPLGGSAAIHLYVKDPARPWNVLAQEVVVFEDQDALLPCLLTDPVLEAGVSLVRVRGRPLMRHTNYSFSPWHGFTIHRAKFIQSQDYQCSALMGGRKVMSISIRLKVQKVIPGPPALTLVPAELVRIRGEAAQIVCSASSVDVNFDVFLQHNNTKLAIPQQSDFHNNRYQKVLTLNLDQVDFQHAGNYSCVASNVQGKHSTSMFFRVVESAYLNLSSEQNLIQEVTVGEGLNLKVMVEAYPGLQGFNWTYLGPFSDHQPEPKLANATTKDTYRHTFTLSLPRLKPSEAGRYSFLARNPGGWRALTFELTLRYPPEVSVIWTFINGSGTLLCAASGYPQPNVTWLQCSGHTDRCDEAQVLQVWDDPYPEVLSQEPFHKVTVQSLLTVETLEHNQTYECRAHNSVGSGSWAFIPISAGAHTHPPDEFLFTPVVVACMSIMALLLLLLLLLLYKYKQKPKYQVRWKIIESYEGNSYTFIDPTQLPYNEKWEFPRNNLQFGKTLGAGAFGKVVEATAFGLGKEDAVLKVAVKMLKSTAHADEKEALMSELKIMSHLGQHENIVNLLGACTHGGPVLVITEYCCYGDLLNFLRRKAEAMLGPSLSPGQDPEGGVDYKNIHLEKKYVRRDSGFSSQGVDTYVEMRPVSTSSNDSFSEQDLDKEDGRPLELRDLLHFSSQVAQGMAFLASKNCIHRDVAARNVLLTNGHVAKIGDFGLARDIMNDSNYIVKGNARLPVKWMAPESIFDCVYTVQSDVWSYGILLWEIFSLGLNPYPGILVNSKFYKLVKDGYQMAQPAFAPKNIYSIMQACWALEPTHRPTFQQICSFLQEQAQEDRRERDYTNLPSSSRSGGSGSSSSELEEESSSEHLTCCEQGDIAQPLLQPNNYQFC
- assay.method.text: KinaseProfiler off-target kinase profiling
- Assay type: biochemical
- measurement.context: 10 μM, ATP near Km
The following molecules are listed with their measured Avg. POC values.
# unit: POC | format: bare number

// query Given Cc1c(-c2cnn(C)c2)nn(-c2ccccc2)c1NC(=O)N[C@H]1CCCc2ccccc21 , state its recorded Avg. POC.
// result 82

// query Query Cc1c(-c2cnn(C)c2)nn(-c2ccccc2)c1NC(=O)NC1CCOc2cc(F)ccc21 (stereo not shown) next
// result 91

// query Query Cc1c(-c2ccc(=O)n(C)c2)nn(-c2ccccc2)c1NC(=O)NC1CN(CC(F)(F)F)Cc2ccccc21 (stereo not shown) next
// result 96

// query Query COCc1ccc2c(c1)C(NC(=O)Nc1c(C)c(-c3cnn(C)c3)nn1-c1ccccc1)COC2 (stereo not shown) next
// result 102

* * *

The following compounds are listed with their measured Avg. POC values.
- tested.on: UniProt:P29317
- Sequence (P29317 24-976): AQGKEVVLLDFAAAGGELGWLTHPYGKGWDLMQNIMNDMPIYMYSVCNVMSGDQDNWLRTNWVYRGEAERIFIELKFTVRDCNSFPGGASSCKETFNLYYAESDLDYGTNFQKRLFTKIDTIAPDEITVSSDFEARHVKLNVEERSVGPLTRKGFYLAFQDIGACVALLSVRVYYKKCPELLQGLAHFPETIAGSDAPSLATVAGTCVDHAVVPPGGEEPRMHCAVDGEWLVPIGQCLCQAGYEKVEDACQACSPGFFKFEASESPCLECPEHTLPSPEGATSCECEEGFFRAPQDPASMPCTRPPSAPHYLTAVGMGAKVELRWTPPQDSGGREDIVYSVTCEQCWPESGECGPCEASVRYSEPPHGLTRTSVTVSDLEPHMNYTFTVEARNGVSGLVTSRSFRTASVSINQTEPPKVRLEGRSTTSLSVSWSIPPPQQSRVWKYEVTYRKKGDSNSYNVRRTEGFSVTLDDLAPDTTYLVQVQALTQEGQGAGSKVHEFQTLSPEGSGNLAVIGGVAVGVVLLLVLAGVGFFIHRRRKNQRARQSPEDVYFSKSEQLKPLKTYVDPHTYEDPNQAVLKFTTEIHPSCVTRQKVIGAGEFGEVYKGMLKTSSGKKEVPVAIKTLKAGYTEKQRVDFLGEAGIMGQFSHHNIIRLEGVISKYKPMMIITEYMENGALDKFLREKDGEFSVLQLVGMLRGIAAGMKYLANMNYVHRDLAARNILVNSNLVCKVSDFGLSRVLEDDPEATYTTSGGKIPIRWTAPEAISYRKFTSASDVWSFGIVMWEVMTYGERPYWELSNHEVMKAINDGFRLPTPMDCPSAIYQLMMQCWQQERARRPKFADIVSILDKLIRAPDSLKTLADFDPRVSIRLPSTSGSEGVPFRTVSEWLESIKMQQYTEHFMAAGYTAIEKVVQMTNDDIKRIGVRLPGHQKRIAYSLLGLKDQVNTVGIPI
- assay.method.text: KinaseProfiler off-target kinase profiling
- Type: biochemical
- measurement.context: 10 μM, ATP near Km
- Description: Representative compounds (Examples 12, 32, 26 and 2) of the invention were tested for off-target kinase activity at a concentration of 10 μM by Millipore, Inc. in their KinaseProfiler™ service against all the kinases available in their full kinase panel. Compounds were run in duplicate at a concentration of ATP near the Km for each individual kinase according to Millipore's specifications. […]
# unit: POC | format: bare number

// query Given Cc1c(-c2cnn(C)c2)nn(-c2ccccc2)c1NC(=O)NC1CCOc2cc(F)ccc21 (stereo not shown) , state its recorded Avg. POC.
// result 113

// query Query Cc1c(-c2ccc(=O)n(C)c2)nn(-c2ccccc2)c1NC(=O)NC1CN(CC(F)(F)F)Cc2ccccc21 (stereo not shown) next
// result 102

// query Query COCc1ccc2c(c1)C(NC(=O)Nc1c(C)c(-c3cnn(C)c3)nn1-c1ccccc1)COC2 (stereo not shown) next
// result 118

// query Query Cc1c(-c2cnn(C)c2)nn(-c2ccccc2)c1NC(=O)N[C@H]1CCCc2ccccc21 next
// result 129

* * *

The following compounds are listed with their measured Avg. POC values.
- tested.on: ERK2 (Homo sapiens (Human), UniProt P28482)
- Sequence (P28482 whole entry): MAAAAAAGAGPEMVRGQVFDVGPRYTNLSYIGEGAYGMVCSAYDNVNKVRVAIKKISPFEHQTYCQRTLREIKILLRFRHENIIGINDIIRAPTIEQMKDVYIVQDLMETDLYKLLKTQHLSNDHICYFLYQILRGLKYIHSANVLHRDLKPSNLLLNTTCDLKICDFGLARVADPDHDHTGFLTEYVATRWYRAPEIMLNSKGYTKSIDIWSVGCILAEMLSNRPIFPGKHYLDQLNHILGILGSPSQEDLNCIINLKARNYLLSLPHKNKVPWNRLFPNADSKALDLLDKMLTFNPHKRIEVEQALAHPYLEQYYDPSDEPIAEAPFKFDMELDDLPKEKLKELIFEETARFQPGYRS
- assay.method.text: KinaseProfiler off-target kinase profiling
- Format: biochemical
- measurement.context: 10 μM, ATP near Km
A bare number is not enough; add the unit after it.

>  <compound>
COCc1ccc2c(c1)C(NC(=O)Nc1c(C)c(-c3cnn(C)c3)nn1-c1ccccc1)COC2 (stereo not shown) [Example 32]

>  <readout.value>
128.5 POC

$$$$
>  <compound>
Cc1c(-c2cnn(C)c2)nn(-c2ccccc2)c1NC(=O)NC1CCOc2cc(F)ccc21 (stereo not shown) [Example 12]

>  <readout.value>
106.5 POC

$$$$
>  <compound>
Cc1c(-c2cnn(C)c2)nn(-c2ccccc2)c1NC(=O)N[C@H]1CCCc2ccccc21 [Example 2]

>  <readout.value>
112.5 POC

$$$$

// query Given Cc1c(-c2ccc(=O)n(C)c2)nn(-c2ccccc2)c1NC(=O)NC1CN(CC(F)(F)F)Cc2ccccc21 (stereo not shown) [Example 26] , state its recorded Avg. POC.
// result 107.5 POC

* * *

- tested.on: Rsk3 (Homo sapiens (Human))
- Sequence (Q15349 whole entry): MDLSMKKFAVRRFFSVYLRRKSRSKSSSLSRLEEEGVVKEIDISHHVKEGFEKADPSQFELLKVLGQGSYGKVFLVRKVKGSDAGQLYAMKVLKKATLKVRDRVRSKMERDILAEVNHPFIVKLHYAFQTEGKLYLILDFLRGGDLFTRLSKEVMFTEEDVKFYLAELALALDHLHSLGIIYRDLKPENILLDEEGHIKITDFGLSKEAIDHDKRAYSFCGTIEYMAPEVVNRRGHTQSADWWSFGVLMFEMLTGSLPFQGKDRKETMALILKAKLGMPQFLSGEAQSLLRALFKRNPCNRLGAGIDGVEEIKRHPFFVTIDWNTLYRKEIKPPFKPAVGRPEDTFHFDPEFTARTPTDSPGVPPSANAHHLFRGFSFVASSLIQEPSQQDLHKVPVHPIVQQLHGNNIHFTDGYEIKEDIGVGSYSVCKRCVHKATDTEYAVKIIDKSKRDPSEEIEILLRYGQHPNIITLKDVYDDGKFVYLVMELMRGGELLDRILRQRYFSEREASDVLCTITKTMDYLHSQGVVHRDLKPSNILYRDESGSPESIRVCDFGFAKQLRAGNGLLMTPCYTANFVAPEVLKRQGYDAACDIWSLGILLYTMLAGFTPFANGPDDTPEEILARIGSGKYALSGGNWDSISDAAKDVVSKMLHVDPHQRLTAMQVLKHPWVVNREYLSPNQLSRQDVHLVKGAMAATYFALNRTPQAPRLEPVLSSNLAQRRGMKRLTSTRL
- assay.method.text: KinaseProfiler off-target kinase profiling
- Type: biochemical
- measurement.context: 10 μM, ATP near Km
measurement.label: Avg. POC (POC)
# unit: POC | format: bare number

Examples from the recorded data:
>  <molecule>
COCc1ccc2c(c1)C(NC(=O)Nc1c(C)c(-c3cnn(C)c3)nn1-c1ccccc1)COC2 (stereo not shown)

>  <Avg. POC / POC>
92

$$$$
>  <molecule>
Cc1c(-c2cnn(C)c2)nn(-c2ccccc2)c1NC(=O)NC1CCOc2cc(F)ccc21 (stereo not shown)

>  <Avg. POC / POC>
90

$$$$
>  <molecule>
Cc1c(-c2cnn(C)c2)nn(-c2ccccc2)c1NC(=O)N[C@H]1CCCc2ccccc21

>  <Avg. POC / POC>
106

$$$$

// query Given Cc1c(-c2ccc(=O)n(C)c2)nn(-c2ccccc2)c1NC(=O)NC1CN(CC(F)(F)F)Cc2ccccc21 (stereo not shown) , state its recorded Avg. POC.
// result 76.5

* * *

The following compounds are listed with their measured Avg. POC values.
- tested.on: UniProtKB P07949
- Sequence (P07949 29-1114): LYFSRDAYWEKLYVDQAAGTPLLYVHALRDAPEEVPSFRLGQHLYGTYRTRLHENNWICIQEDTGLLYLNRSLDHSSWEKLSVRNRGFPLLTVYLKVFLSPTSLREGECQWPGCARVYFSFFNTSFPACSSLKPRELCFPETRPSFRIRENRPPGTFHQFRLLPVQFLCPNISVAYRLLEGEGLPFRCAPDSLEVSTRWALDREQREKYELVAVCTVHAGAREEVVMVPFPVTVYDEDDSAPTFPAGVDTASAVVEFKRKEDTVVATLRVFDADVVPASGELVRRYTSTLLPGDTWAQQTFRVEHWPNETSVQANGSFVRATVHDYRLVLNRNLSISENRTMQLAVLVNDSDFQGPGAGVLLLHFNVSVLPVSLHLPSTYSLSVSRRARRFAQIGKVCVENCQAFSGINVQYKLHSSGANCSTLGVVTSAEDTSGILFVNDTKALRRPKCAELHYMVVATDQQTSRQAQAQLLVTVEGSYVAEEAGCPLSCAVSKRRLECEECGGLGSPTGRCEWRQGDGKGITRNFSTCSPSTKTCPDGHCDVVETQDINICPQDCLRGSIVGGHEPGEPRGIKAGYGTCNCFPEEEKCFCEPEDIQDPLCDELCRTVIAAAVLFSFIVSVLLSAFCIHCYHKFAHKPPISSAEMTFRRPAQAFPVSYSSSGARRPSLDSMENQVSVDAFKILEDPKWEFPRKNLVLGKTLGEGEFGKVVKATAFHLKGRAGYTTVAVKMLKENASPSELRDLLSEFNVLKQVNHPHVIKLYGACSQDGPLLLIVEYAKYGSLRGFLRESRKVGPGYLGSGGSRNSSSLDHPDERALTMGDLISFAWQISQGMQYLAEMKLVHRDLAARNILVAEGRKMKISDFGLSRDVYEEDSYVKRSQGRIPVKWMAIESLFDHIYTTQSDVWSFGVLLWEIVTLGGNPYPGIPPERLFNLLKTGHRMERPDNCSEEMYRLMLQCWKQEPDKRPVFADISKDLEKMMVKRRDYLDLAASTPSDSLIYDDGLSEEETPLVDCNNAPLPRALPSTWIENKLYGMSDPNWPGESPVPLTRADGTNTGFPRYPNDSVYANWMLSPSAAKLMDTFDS
- assay.method.text: KinaseProfiler off-target kinase profiling
- Format: biochemical
- measurement.context: 10 μM, ATP near Km
# unit: POC | format: bare number

Examples from the recorded data:
>  <compound>
Cc1c(-c2ccc(=O)n(C)c2)nn(-c2ccccc2)c1NC(=O)NC1CN(CC(F)(F)F)Cc2ccccc21 (stereo not shown)

>  <units>
POC

>  <Avg. POC>
106.5

$$$$
>  <compound>
Cc1c(-c2cnn(C)c2)nn(-c2ccccc2)c1NC(=O)NC1CCOc2cc(F)ccc21 (stereo not shown)

>  <units>
POC

>  <Avg. POC>
85

$$$$
>  <compound>
COCc1ccc2c(c1)C(NC(=O)Nc1c(C)c(-c3cnn(C)c3)nn1-c1ccccc1)COC2 (stereo not shown)

>  <units>
POC

>  <Avg. POC>
100.5

$$$$

Let's switch to this compound now.
// query Recall the recorded Avg. POC for Cc1c(-c2cnn(C)c2)nn(-c2ccccc2)c1NC(=O)N[C@H]1CCCc2ccccc21 with UniProtKB P07949 and state it.
// result 118.5

* * *

The following compounds are listed with their measured Avg. POC values.
- tested.on: TSSK1 (Homo sapiens (Human))
- Sequence (Q9BXA7 whole entry): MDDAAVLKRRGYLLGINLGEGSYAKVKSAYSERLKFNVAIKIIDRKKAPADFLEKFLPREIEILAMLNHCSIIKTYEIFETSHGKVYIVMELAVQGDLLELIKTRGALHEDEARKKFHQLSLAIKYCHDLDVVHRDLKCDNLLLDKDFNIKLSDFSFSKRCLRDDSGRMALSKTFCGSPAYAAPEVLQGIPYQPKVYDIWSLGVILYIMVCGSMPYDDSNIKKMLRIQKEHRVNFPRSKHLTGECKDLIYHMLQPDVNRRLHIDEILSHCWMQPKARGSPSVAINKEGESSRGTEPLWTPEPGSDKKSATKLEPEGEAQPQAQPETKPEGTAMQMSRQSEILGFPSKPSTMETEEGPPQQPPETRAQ
- assay.method.text: KinaseProfiler off-target kinase profiling
- Type: biochemical
- measurement.context: 10 μM, ATP near Km
# unit: POC | format: bare number

Examples from the recorded data:
>  <compound>
COCc1ccc2c(c1)C(NC(=O)Nc1c(C)c(-c3cnn(C)c3)nn1-c1ccccc1)COC2 (stereo not shown)

>  <units>
POC

>  <readout.value>
88.5

$$$$
>  <compound>
Cc1c(-c2ccc(=O)n(C)c2)nn(-c2ccccc2)c1NC(=O)NC1CN(CC(F)(F)F)Cc2ccccc21 (stereo not shown)

>  <units>
POC

>  <readout.value>
71.5

$$$$
>  <compound>
Cc1c(-c2cnn(C)c2)nn(-c2ccccc2)c1NC(=O)NC1CCOc2cc(F)ccc21 (stereo not shown)

>  <units>
POC

>  <readout.value>
79

$$$$

Let's switch to this compound now.
// query Given Cc1c(-c2cnn(C)c2)nn(-c2ccccc2)c1NC(=O)N[C@H]1CCCc2ccccc21 , state its recorded Avg. POC.
// result 106

* * *

- tested.on: PDK1 (Homo sapiens (Human), UniProt O15530)
- Sequence (O15530 whole entry): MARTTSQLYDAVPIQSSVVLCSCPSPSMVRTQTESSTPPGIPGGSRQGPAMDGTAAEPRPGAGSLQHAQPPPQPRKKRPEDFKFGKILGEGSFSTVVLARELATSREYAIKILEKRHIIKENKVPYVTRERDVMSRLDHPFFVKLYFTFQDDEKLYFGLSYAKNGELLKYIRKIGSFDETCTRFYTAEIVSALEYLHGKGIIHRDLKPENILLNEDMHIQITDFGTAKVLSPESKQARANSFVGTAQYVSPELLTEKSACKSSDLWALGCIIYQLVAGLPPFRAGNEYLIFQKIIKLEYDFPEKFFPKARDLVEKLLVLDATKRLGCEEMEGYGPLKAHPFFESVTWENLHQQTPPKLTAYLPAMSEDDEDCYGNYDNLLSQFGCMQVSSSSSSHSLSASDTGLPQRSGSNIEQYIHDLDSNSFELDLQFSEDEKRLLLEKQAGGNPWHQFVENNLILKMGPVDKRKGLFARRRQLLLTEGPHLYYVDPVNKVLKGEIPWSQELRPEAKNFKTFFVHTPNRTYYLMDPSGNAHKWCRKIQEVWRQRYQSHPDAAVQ
- assay.method.text: KinaseProfiler off-target kinase profiling
- Format: biochemical
- measurement.context: 10 μM, ATP near Km
The following compounds are listed with their measured Avg. POC values.
# unit: POC | format: bare number

Examples from the recorded data:
>  <compound>
Cc1c(-c2cnn(C)c2)nn(-c2ccccc2)c1NC(=O)NC1CCOc2cc(F)ccc21 (stereo not shown) [Example 12]

>  <Avg. POC [POC]>
105.5

$$$$
>  <compound>
Cc1c(-c2ccc(=O)n(C)c2)nn(-c2ccccc2)c1NC(=O)NC1CN(CC(F)(F)F)Cc2ccccc21 (stereo not shown) [Example 26]

>  <Avg. POC [POC]>
115

$$$$
>  <compound>
COCc1ccc2c(c1)C(NC(=O)Nc1c(C)c(-c3cnn(C)c3)nn1-c1ccccc1)COC2 (stereo not shown) [Example 32]

>  <Avg. POC [POC]>
101.5

$$$$

Let's switch to this compound now.
// query Given Cc1c(-c2cnn(C)c2)nn(-c2ccccc2)c1NC(=O)N[C@H]1CCCc2ccccc21 [Example 2] , state its recorded Avg. POC.
// result 120.5

* * *

The following compounds are listed with their measured Avg. POC values.
- tested.on: EphA1 (Homo sapiens (Human), UniProt P21709)
- assay.method.text: KinaseProfiler off-target kinase profiling
- Type: biochemical
- measurement.context: 10 μM, ATP near Km
# unit: POC | format: bare number

Examples from the recorded data:
>  <compound>
Cc1c(-c2ccc(=O)n(C)c2)nn(-c2ccccc2)c1NC(=O)NC1CN(CC(F)(F)F)Cc2ccccc21 (stereo not shown)

>  <units>
POC

>  <Avg. POC>
101

$$$$
>  <compound>
COCc1ccc2c(c1)C(NC(=O)Nc1c(C)c(-c3cnn(C)c3)nn1-c1ccccc1)COC2 (stereo not shown)

>  <units>
POC

>  <Avg. POC>
114

$$$$
>  <compound>
Cc1c(-c2cnn(C)c2)nn(-c2ccccc2)c1NC(=O)N[C@H]1CCCc2ccccc21

>  <units>
POC

>  <Avg. POC>
85

$$$$

Let's switch to this compound now.
// query Given Cc1c(-c2cnn(C)c2)nn(-c2ccccc2)c1NC(=O)NC1CCOc2cc(F)ccc21 (stereo not shown) , state its recorded Avg. POC.
// result 100
